B1: tRNA (parent)
chain: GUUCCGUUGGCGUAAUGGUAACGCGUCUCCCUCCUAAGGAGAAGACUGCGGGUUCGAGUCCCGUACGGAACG

- Variants of: B1
- assaySummary: yeast fitness relative to wild type (ratio to wild type); higher = fitter; tRNA-Arg(CCU), competitive growth, 37 C, YPD
Fewer inactive variants are shown than the library holds.
assayEndpoint: yeast fitness
Give bare numbers.

[[record]]
mutationannotation = "U3C C24U A40G C46A"
assayendpoint = "yeast fitness"
valuereported = 0.702


Hi! Can you tell me yeast fitness for each of these variants?
1. G10C U26A C49U A65U
2. C46U C61U G67A
3. C27U C66A G68C

1: 0.553; 2: 0.535; 3: 0.543

Hi! Can you tell me yeast fitness for each of these variants?
1. A21U C22A G38C U54G C60A
2. G12A U35A G58A G68A
3. G39C U54G
4. C22G U64C
5. C4A G68U A69G

1: 0.846; 2: 0.561; 3: 0.547; 4: 0.856; 5: 0.705

Hi! Can you tell me yeast fitness for each of these variants?
1. C34U A70G
2. C4A C24G G44C G68U

0.803
0.562
